assay: Permeability of compound at pH 7.4 incubated for 4 hrs by PAMPA based UV analysis; assay type: ADME; details: read-out: permeability
property: Papp at 4 h (×10⁻⁶ cm/s)
# output: bare number, implied unit ×10⁻⁶ cm/s

O=S(=O)(/C=C/c1cn(-c2ccccc2)nc1-c1cccnc1)c1ccccc1 :: 42.6

Qu. Output Papp at 4 h of Cc1ccc(-c2nn(-c3ccccc3)cc2/C=C/C(=O)N2CCCCC2C(N)=O)cc1C (configuration not stated)
Ans. 23

###

inhibition by entry:
target: Heat shock protein HSP 90-beta/Hsp90 co-chaperone Cdc37 (Homo sapiens) (UniProt P08238+Q16543); test: Inhibition of His-tagged HSP90(unknown origin)/GST-tagged CDC37 (unknown origin) protein-protein interaction at 100 uM preincubated with HSP90 for 1 hrs followed by CDC37 addition and measured after 1 hrs by HTRF assay relative to control; assay type: protein-complex assay
# output: bare number, implied unit %

COc1ncccc1-c1nn(-c2ccccc2)cc1/C=C/C(=O)N1CCCCC1C(N)=O (stereo not given) :: 45.7
NC(=O)C1CCCCN1C(=O)/C=C/c1cn(-c2ccccc2)nc1-c1cccc(Cl)c1 (stereo not given) :: 48.3
Cc1cccc(-c2nn(-c3ccccc3)cc2/C=C/C(=O)N2CCCCC2C(N)=O)c1 (stereo not given) :: 52.9

Field: next compound
Qu. Output inhibition of O=S(=O)(/C=C/c1cn(-c2ccccc2)nc1-c1cccnc1)c1ccc(Cl)cc1
Ans. 89.2

###

test: Half-life in male Sprague-Dawley rat at 1 mg/kg, iv by LC-MS/MS analysis; format: ADME, organism-based; conditions: in vivo
property: half-life (min)
# output: bare number, implied unit min

Qu. Output half-life of O=S(=O)(/C=C/c1cn(-c2ccccc2)nc1-c1cccnc1)c1ccccc1
Ans. 50.4

###

test: Metabolic stability in rat liver microsomes assessed as clearance at 1 uM preincubated for 5 mins followed by NADPH addition and measured up to 120 mins by LC-MS/MS analysis; assay type: ADME, Microsome; conditions: time < 125 min, read-out: CLH
property: microsomal CLint at 1 µM (µL/min/mg)
# output: bare number, implied unit µL/min/mg

Qu. Output microsomal CLint at 1 µM of O=S(=O)(/C=C/c1cn(-c2ccccc2)nc1-c1cccnc1)c1ccccc1
Ans. 55

###

tested on: HT-1080; assay: Antiproliferative activity against human HT-1080 cells assessed as inhibition of cell proliferation incubated for 72 hrs by MTT assay; assay type: functional, cell-based; details: HT-1080, 72 h
property: IC50
Include the unit after the number when you answer.

O=S(=O)(/C=C/c1cn(-c2ccccc2)nc1-c1cccnc1)c1ccccc1 :: 2.71 µM

Field: next compound
Qu. Please report the measured IC50 for Cc1ccc(-c2nn(-c3ccccc3)cc2/C=C/C(=O)N2CCCCC2C(N)=O)cc1C (configuration not stated) tested on HT-1080.
Ans. 14.8 µM

###

molecular target: Heat shock protein HSP 90-alpha (Homo sapiens, UniProt P07900); experiment: Binding affinity to His-tagged HSP90alpha (unknown origin) assessed as dissociation constant by SPR analysis
property: pKd
Expect pKd as a plain number equal to -log10 of the molar concentration.

Qu. Output pKd of O=S(=O)(/C=C/c1cn(-c2ccccc2)nc1-c1cccnc1)c1ccccc1
Ans. 5.86

###

experiment: Metabolic stability in human liver microsomes assessed as terminal elimination half-life at 1 uM preincubated for 5 mins followed by NADPH addition and measured up to 120 mins by LC-MS/MS analysis; type: ADME, Microsome; details: time < 125 min, read-out: LambdaZ (converted)
property: half-life at 1 µM (min)
# output: bare number, implied unit min

Qu. Output half-life at 1 µM of O=S(=O)(/C=C/c1cn(-c2ccccc2)nc1-c1cccnc1)c1ccccc1
Ans. 53.4

###

assay: Cmax in male Sprague-Dawley rat at 5 mg/kg, ip by LC-MS/MS analysis; format: ADME, organism-based; conditions: in vivo
property: Cmax (ng/mL)
# output: bare number, implied unit ng/mL

Qu. Output Cmax of O=S(=O)(/C=C/c1cn(-c2ccccc2)nc1-c1cccnc1)c1ccccc1
Ans. 8350

###

assay: Metabolic stability in human liver microsomes assessed as clearance at 1 uM preincubated for 5 mins followed by NADPH addition and measured up to 120 mins by LC-MS/MS analysis; format: ADME, Microsome; details: time < 125 min, read-out: CLH
property: microsomal CLint at 1 µM

Qu. Output microsomal CLint at 1 µM of O=S(=O)(/C=C/c1cn(-c2ccccc2)nc1-c1cccnc1)c1ccccc1
Ans. 26 µL/min/mg

###

test: Half-life in male Sprague-Dawley rat at 10 mg/kg, IG by LC-MS/MS analysis; format: ADME, organism-based; details: in vivo, po
property: half-life

Qu. Output half-life of O=S(=O)(/C=C/c1cn(-c2ccccc2)nc1-c1cccnc1)c1ccccc1
Ans. 2.02 h

###

test system: HCT-116; assay: Antiproliferative activity against human HCT-116 cells assessed as inhibition of cell proliferation incubated for 72 hrs by MTT assay; assay type: functional, cell-based; conditions: HCT-116, 72 h
property: IC50 (µM)
# output: bare number, implied unit µM

These solved cases illustrate the format of a correct answer.
NC(=O)C1CCCCN1C(=O)/C=C/c1cn(-c2ccccc2)nc1-c1cccs1 (stereo not given) :: 8.46
COc1cc(-c2nn(-c3ccccc3)cc2/C=C/C(=O)N2CCCCC2C(N)=O)ccc1Br (stereo not given) :: 10.1
COc1cc(-c2nn(-c3ccccc3)cc2/C=C/C(=O)N2CCCCC2C(N)=O)ccc1Cl (stereo not given) :: 11
CCN(CC)C(=O)/C=C/c1cn(-c2ccccc2)nc1-c1cccnc1 :: 10.3
CCCN(CCC)C(=O)/C=C/c1cn(-c2ccccc2)nc1-c1cccnc1 :: 9.04

Qu. Output IC50 of NC(=O)C1CCCCN1C(=O)/C=C/c1cn(-c2ccccc2)nc1-c1cccc(F)c1 (stereo not given)
Ans. 14.2

Qu. Output IC50 of NC(=O)C1CCCCN1C(=O)/C=C/c1cn(-c2ccccc2)nc1-c1ccco1 (stereo not given)
Ans. 9.79

Qu. Output IC50 of NC(=O)C1CCCCN1C(=O)/C=C/c1cn(-c2ccccc2)nc1-c1cncc(Br)c1 (stereo not given)
Ans. 9.18

Qu. Output IC50 of NC(=O)C1CCCCN1C(=O)/C=C/c1cn(-c2ccccc2)nc1-c1ccccn1 (stereo not given)
Ans. 7.11

Qu. Output IC50 of COc1cncc(-c2nn(-c3ccccc3)cc2/C=C/C(=O)N2CCCCC2C(N)=O)c1 (stereo not given)
Ans. 8.98

###

assay: AUC (0 to infinity) in male Sprague-Dawley rat at 10 mg/kg, IG by LC-MS/MS analysis; format: ADME, organism-based; settings: in vivo, po
property: AUC(0-inf) (ng·h/mL)
# output: bare number, implied unit ng·h/mL

Qu. Output AUC(0-inf) of O=S(=O)(/C=C/c1cn(-c2ccccc2)nc1-c1cccnc1)c1ccccc1
Ans. 9810

###

assay: Metabolic stability in rat liver microsomes assessed as terminal elimination half-life at 1 uM preincubated for 5 mins followed by NADPH addition and measured up to 120 mins by LC-MS/MS analysis; format: ADME, Microsome; conditions: time < 125 min, read-out: LambdaZ (converted)
property: half-life at 1 µM (min)
# output: bare number, implied unit min

Qu. Output half-life at 1 µM of O=S(=O)(/C=C/c1cn(-c2ccccc2)nc1-c1cccnc1)c1ccccc1
Ans. 25.2

###

assay: Clearance in male Sprague-Dawley rat at 5 mg/kg, ip by LC-MS/MS analysis; assay type: ADME, organism-based; settings: in vivo
property: CL/F (mL/min/kg)
# output: bare number, implied unit mL/min/kg

Qu. Output CL/F of O=S(=O)(/C=C/c1cn(-c2ccccc2)nc1-c1cccnc1)c1ccccc1
Ans. 12.2

###

experiment: Tmax in male Sprague-Dawley rat at 5 mg/kg, ip by LC-MS/MS analysis; type: ADME, organism-based; conditions: in vivo
property: Tmax (min)
# output: bare number, implied unit min

Qu. Output Tmax of O=S(=O)(/C=C/c1cn(-c2ccccc2)nc1-c1cccnc1)c1ccccc1
Ans. 8.4

###

test system: MCF7; assay: Antiproliferative activity against human MCF7 cells assessed as inhibition of cell proliferation incubated for 72 hrs by MTT assay; type: functional, cell-based; conditions: MCF7, 72 h
IC50 by entry:
Include the unit after the number when you answer.

O=S(=O)(/C=C/c1cn(-c2ccccc2)nc1-c1cccnc1)c1ccccc1 :: 2.34 µM

Field: next molecule
Qu. Output IC50 of Cc1ccc(-c2nn(-c3ccccc3)cc2/C=C/C(=O)N2CCCCC2C(N)=O)cc1C (configuration not stated)
Ans. 12.2 µM

###

assay: Metabolic stability in human liver microsomes assessed as parent compound remaining at 1 uM preincubated for 5 mins followed by NADPH addition and measured after 30 mins by LC-MS/MS analysis; type: ADME, Microsome; conditions: time 35 min, read-out: Stability
property: remaining at 0.5 h, 1 µM (%)
# output: bare number, implied unit %

Qu. Output remaining at 0.5 h, 1 µM of O=S(=O)(/C=C/c1cn(-c2ccccc2)nc1-c1cccnc1)c1ccccc1
Ans. 64

src = ChEMBL document CHEMBL6177982
